- run_description: Terminal half life in mouse at 15 mg/kg, po or 1 mg/kg, iv
- Assay type: ADME, organism-based
- condition: in vivo, read-out: beta t1/2 (converted)
measurement_name: half-life (h)
Numbers only, in h.

// half-life lookup, molecule = CC[C@@H](N)c1nc(N2CCC[C@H]2C)cc2c1CN(c1cccc(-c3nnc4n3[C@@H](C)CC4)n1)C2=O , result: 3.3

* * *

- run_description: Tmax in monkey at 1 mg/kg, po or 0.5 mg/kg, iv
- Assay type: ADME, organism-based, Macaca mulatta
- condition: rhesus monkey, in vivo
measurement_name: Tmax (h)
One number for each entry, in h.

// Tmax lookup, compound = CC[C@@H](N)c1nc(N2CCC[C@H]2C)cc2c1CN(c1cccc(-c3nnc4n3[C@@H](C)CC4)n1)C2=O , result: 1
